# ASSAY SUMMARY: Cytotoxicity against human MCF10A cells after 72 hrs by MTT assay
# Format: cell-based, MCF-10A
# DETAILS: mcf-10a, 72 h
READOUT KIND: TGI (µM)
Numeric answer only, unit µM assumed.

Lookup: Which value of TGI has been reported for CS/C(=N\C(=O)c1cnc2ccccc2c1)NC(=O)c1cnc2ccccc2c1 in the records?
Found: 42.17

Lookup: What does the record list as TGI for O=C(/N=C(/NC(=O)c1sccc1Cl)[Se]Cc1ccccc1)c1sccc1Cl ?
Found: 28.33

Lookup: Any idea what its TGI is? The compound is C[Se]/C(=N\C(=O)c1ccno1)NC(=O)c1ccno1
Found: 15.41

Lookup: # TGI lookup, item CS/C(=N\C(=O)c1cccs1)NC(=O)c1cccs1
Found: 55.1

---

# ASSAY SUMMARY: Cytotoxicity against human MCF10A cells after 72 hrs by MTT assay
# Type: cell-based, MCF-10A
# DETAILS: mcf-10a, 72 h
Binary label based on LC50 with cut-off 50 µM: below gives y, not below gives n.

Lookup: Hello, is LC50 of the following compound strictly smaller than 50 µM? O=C(/N=C(/NC(=O)c1sccc1Cl)[Se]Cc1ccccc1)c1sccc1Cl
Found: n

Lookup: I wonder whether C[Se]/C(=N\C(=O)c1ccc2c(c1)OCO2)NC(=O)c1ccc2c(c1)OCO2 has LC50 below 50 µM. Can you tell?
Found: n

Lookup: # TODO verify LC50 < 50 µM strictly for this compound: C[Se]/C(=N\C(=O)c1c2ccccc2nc2ccccc12)NC(=O)c1c2ccccc2nc2ccccc12
Found: n

Lookup: Please indicate whether the reported LC50 of CS/C(=N\C(=O)c1ccc2c(c1)OCO2)NC(=O)c1ccc2c(c1)OCO2 is strictly below 50 µM.
Found: y

Lookup: For this compound, is LC50 lower than 50 µM? O=C(/N=C(/NC(=O)c1ccc2c(c1)OCO2)[Se]Cc1ccccc1)c1ccc2c(c1)OCO2
Found: n

Lookup: Criterion: LC50 strictly below 50 µM. Is it met by CS/C(=N\C(=O)c1cccs1)NC(=O)c1cccs1 ?
Found: n

Lookup: Report whether reported LC50 is lower than 50 µM (strictly) for CS/C(=N\C(=O)c1cc2ccccc2s1)NC(=O)c1cc2ccccc2s1
Found: n

Lookup: API: query returns whether the compound falls strictly under 50 µM in LC50. Query: O=C(/N=C(/NC(=O)c1cc(-c2ccccc2)nc2ccccc12)[Se]Cc1ccccc1)c1cc(-c2ccccc2)nc2ccccc12
Found: n

Lookup: Determine whether this compound shows LC50 lower than 50 µM (ties excluded): CS/C(=N\C(=O)c1c2ccccc2nc2ccccc12)NC(=O)c1c2ccccc2nc2ccccc12
Found: n

Lookup: Determine if C[Se]/C(=N\C(=O)c1csc([N+](=O)[O-])c1)NC(=O)c1csc([N+](=O)[O-])c1 shows LC50 strictly lower than 50 µM.
Found: y

---

# ASSAY SUMMARY: Cytotoxicity against human MCF10A cells after 72 hrs by MTT assay
# Assay type: cell-based, MCF-10A
# DETAILS: MCF10A cells
READOUT KIND: GI50 at 72 h

Lookup: Look up GI50 at 72 h: O=C(/N=C(/NC(=O)c1c2ccccc2nc2ccccc12)[Se]Cc1ccccc1)c1c2ccccc2nc2ccccc12
Found: 53.7 µM

Lookup: Can you share its GI50 at 72 h? I mean this compound: C[Se]/C(=N\C(=O)c1sccc1Cl)NC(=O)c1sccc1Cl
Found: 3.16 µM

Lookup: Which GI50 at 72 h is reported for this compound? C[Se]/C(=N\C(=O)c1csc([N+](=O)[O-])c1)NC(=O)c1csc([N+](=O)[O-])c1
Found: 1.95 µM

Lookup: Sample O=C(/N=C(/NC(=O)c1cc(-c2ccccc2)nc2ccccc12)[Se]Cc1ccccc1)c1cc(-c2ccccc2)nc2ccccc12 — what was its GI50 at 72 h?
Found: 8.46 µM

Lookup: Look up GI50 at 72 h for this compound: CS/C(=N\C(=O)c1cc2ccccc2s1)NC(=O)c1cc2ccccc2s1
Found: 0.02 µM

Lookup: Which GI50 at 72 h is reported for this compound? CS/C(=N\C(=O)c1c2ccccc2nc2ccccc12)NC(=O)c1c2ccccc2nc2ccccc12
Found: 1 µM

Lookup: Would you kindly share the measured GI50 at 72 h for C[Se]/C(=N\C(=O)c1ccco1)NC(=O)c1ccco1 ?
Found: 5.94 µM

Lookup: Which GI50 at 72 h value belongs to O=C(/N=C(/NC(=O)c1cccs1)[Se]Cc1ccccc1)c1cccs1 ?
Found: 72.5 µM

Lookup: For the compound shown here, C[Se]/C(=N\C(=O)c1cnc2ccccc2c1)NC(=O)c1cnc2ccccc2c1 , give the reported GI50 at 72 h.
Found: 20.3 µM

Lookup: Which measured GI50 at 72 h value corresponds to O=C(/N=C(/NC(=O)c1ccno1)[Se]Cc1ccccc1)c1ccno1 ?
Found: 7.8 µM

Lookup: Field request: GI50 at 72 h | item: O=C(/N=C(/NC(=O)c1cnc2ccccc2c1)[Se]Cc1ccccc1)c1cnc2ccccc2c1
Found: 23.6 µM

Lookup: Please give the measured GI50 at 72 h for this compound: O=C(/N=C(/NC(=O)c1sccc1Cl)[Se]Cc1ccccc1)c1sccc1Cl
Found: 3.68 µM

Lookup: Requested field: GI50 at 72 h. Item: CS/C(=N\C(=O)c1cnc2ccccc2c1)NC(=O)c1cnc2ccccc2c1
Found: 0.5 µM

Lookup: What does the data say about its GI50 at 72 h? Entry: C[Se]/C(=N\C(=O)c1ccc2c(c1)OCO2)NC(=O)c1ccc2c(c1)OCO2
Found: 5.58 µM

Lookup: Could you share which GI50 at 72 h value was measured for CS/C(=N\C(=O)c1ccco1)NC(=O)c1ccco1 ?
Found: 8.22 µM

Lookup: Would you mind telling me what GI50 at 72 h value was observed for C[Se]/C(=N\C(=O)c1ccno1)NC(=O)c1ccno1 ?
Found: 2.89 µM

Lookup: GI50 at 72 h for CS/C(=N\C(=O)c1ccc2c(c1)OCO2)NC(=O)c1ccc2c(c1)OCO2 ?
Found: 1.01 µM

Lookup: Tell me the measured GI50 at 72 h of CS/C(=N\C(=O)c1cc(-c2ccccc2)nc2ccccc12)NC(=O)c1cc(-c2ccccc2)nc2ccccc12 , please.
Found: 0.04 µM

Lookup: Tell me the measured GI50 at 72 h of CS/C(=N\C(=O)c1csc([N+](=O)[O-])c1)NC(=O)c1csc([N+](=O)[O-])c1 , please.
Found: 1.55 µM

Lookup: Requested read-out: GI50 at 72 h. Entry: O=C(/N=C(/NC(=O)c1cc2ccccc2s1)[Se]Cc1ccccc1)c1cc2ccccc2s1
Found: 37.9 µM

Lookup: What value of GI50 at 72 h has been recorded for this entry: CS/C(=N\C(=O)c1cccs1)NC(=O)c1cccs1
Found: 19.7 µM

Lookup: May I ask what GI50 at 72 h has been recorded for CS/C(=N\C(=O)c1ccno1)NC(=O)c1ccno1 ?
Found: 16.9 µM

Lookup: Which measured GI50 at 72 h value corresponds to C[Se]/C(=N\C(=O)c1cc(-c2ccccc2)nc2ccccc12)NC(=O)c1cc(-c2ccccc2)nc2ccccc12 ?
Found: 0.71 µM

Lookup: Endpoint output: GI50 at 72 h of C[Se]/C(=N\C(=O)c1c2ccccc2nc2ccccc12)NC(=O)c1c2ccccc2nc2ccccc12 . Value?
Found: 18.2 µM

Lookup: I am curious: what GI50 at 72 h value has been reported for CS/C(=N\C(=O)c1sccc1Cl)NC(=O)c1sccc1Cl ?
Found: 0.09 µM

---

# Test system: HepG2
# ASSAY SUMMARY: Cytotoxicity against human HepG2 cells after 72 hrs by MTT assay
# Type: functional
# DETAILS: HepG2, 72 h
Kindly supply the reported TGI values for the records listed here.

Lookup: Record CS/C(=N\C(=O)c1ccc2c(c1)OCO2)NC(=O)c1ccc2c(c1)OCO2 : what is its TGI with HepG2?
Found: > 100 µM

Lookup: Form field: TGI recorded for CS/C(=N\C(=O)c1cnc2ccccc2c1)NC(=O)c1cnc2ccccc2c1 with HepG2 (enter value)
Found: > 100 µM

Lookup: Query TGI on HepG2 for CS/C(=N\C(=O)c1cccs1)NC(=O)c1cccs1
Found: > 100 µM

---

# Tested on: MCF7
# ASSAY SUMMARY: Cytotoxicity against human MCF7 cells after 72 hrs by MTT assay
# Format: functional
# DETAILS: MCF7, 72 h
I'd be grateful if you could share measured LC50 for these entries.

Lookup: Return reported LC50; argument: CS/C(=N\C(=O)c1c2ccccc2nc2ccccc12)NC(=O)c1c2ccccc2nc2ccccc12
Found: > 100 µM

Lookup: Using the record for CS/C(=N\C(=O)c1csc([N+](=O)[O-])c1)NC(=O)c1csc([N+](=O)[O-])c1 , report its LC50.
Found: > 100 µM

Lookup: Item C[Se]/C(=N\C(=O)c1csc([N+](=O)[O-])c1)NC(=O)c1csc([N+](=O)[O-])c1 has what recorded LC50?
Found: > 100 µM

Lookup: Sample CS/C(=N\C(=O)c1ccno1)NC(=O)c1ccno1 — what was its LC50?
Found: > 100 µM

Lookup: Requested read-out: LC50. Entry: C[Se]/C(=N\C(=O)c1ccco1)NC(=O)c1ccco1
Found: > 100 µM

Lookup: Form field: reported LC50 of O=C(/N=C(/NC(=O)c1sccc1Cl)[Se]Cc1ccccc1)c1sccc1Cl
Found: > 100 µM

Lookup: May I ask what LC50 has been recorded for CS/C(=N\C(=O)c1cnc2ccccc2c1)NC(=O)c1cnc2ccccc2c1 ?
Found: > 100 µM

Lookup: Given the entry O=C(/N=C(/NC(=O)c1ccc2c(c1)OCO2)[Se]Cc1ccccc1)c1ccc2c(c1)OCO2 , report its measured LC50.
Found: > 100 µM

Lookup: // query LC50 value for entry O=C(/N=C(/NC(=O)c1cc(-c2ccccc2)nc2ccccc12)[Se]Cc1ccccc1)c1cc(-c2ccccc2)nc2ccccc12
Found: 97 µM

Lookup: What measured LC50 goes with C[Se]/C(=N\C(=O)c1sccc1Cl)NC(=O)c1sccc1Cl ?
Found: > 100 µM

Lookup: Any idea what its LC50 is? The compound is C[Se]/C(=N\C(=O)c1c2ccccc2nc2ccccc12)NC(=O)c1c2ccccc2nc2ccccc12
Found: > 100 µM

Lookup: Would you mind telling me what LC50 value was observed for O=C(/N=C(/NC(=O)c1ccno1)[Se]Cc1ccccc1)c1ccno1 ?
Found: > 100 µM

Lookup: Item O=C(/N=C(/NC(=O)c1c2ccccc2nc2ccccc12)[Se]Cc1ccccc1)c1c2ccccc2nc2ccccc12 has what recorded LC50?
Found: > 100 µM

Lookup: What LC50 value was documented for this compound, O=C(/N=C(/NC(=O)c1cc2ccccc2s1)[Se]Cc1ccccc1)c1cc2ccccc2s1 ?
Found: 87.9 µM

Lookup: Using the record for CS/C(=N\C(=O)c1cccs1)NC(=O)c1cccs1 , report its LC50.
Found: > 100 µM

Lookup: Consider the compound CS/C(=N\C(=O)c1ccco1)NC(=O)c1ccco1 and give its measured LC50.
Found: > 100 µM

Lookup: Query (compound): C[Se]/C(=N\C(=O)c1cccs1)NC(=O)c1cccs1 ; field requested: LC50
Found: > 100 µM

Lookup: Given the entry CS/C(=N\C(=O)c1cc(-c2ccccc2)nc2ccccc12)NC(=O)c1cc(-c2ccccc2)nc2ccccc12 , report its measured LC50.
Found: > 100 µM

Lookup: May I ask what LC50 has been recorded for CS/C(=N\C(=O)c1cc2ccccc2s1)NC(=O)c1cc2ccccc2s1 ?
Found: 78.5 µM
